B1: H2-Kb / Ed5 (parent complex)
chain 1: GDSVTQTEGPVTVSESESLIINCTYSATSIAYPNLFWYVRYPGEGLQLLLKVITAGQKGSSRGFEATYNKETTSFHLQKASVQESDSAVYYCALGSYNQGKLIFGQGTKLSIKP
chain 2: DTTVKQNPRYKLARVGKPVNLICSQTMNHDTMYWYQKKPNQAPKLLLFYYDKILNREADTFEKFQSSRPNNSFCSLYIGSAGLEYSAMYLCASSRRLGASQNTLYFGAGTRLSVL
chain 3: not shown
chain 4: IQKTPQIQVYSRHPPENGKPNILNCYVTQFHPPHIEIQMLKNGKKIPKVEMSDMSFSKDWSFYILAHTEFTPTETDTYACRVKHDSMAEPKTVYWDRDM
chain 5: SIINFEKL

- Variants of: B1
- Test summary: % of reporter cells activated (NFAT-GFP), raw; also: test concentration or dose not given here

{"Mutations": "chain 5 N4R", "ratio to parent": 0.374}
{"Mutations": "chain 5 I2T", "ratio to parent": 1}
{"Mutations": "chain 5 I2D", "ratio to parent": 0.943}
{"Mutations": "chain 5 S1F", "ratio to parent": 0.0691}
{"Mutations": "chain 5 S1E", "ratio to parent": 0.981}
